# METHOD: Pharmacokinetics after intravenous and oral administration in mice
# Format: in vivo
# CONDITION PARAMETERS: plasma; Mouse, iv dosing, dose 1 mg/kg
METRIC NAME: half-life (min)

A. Cc1nnc(-c2c(N)ncnc2N[C@@H](C)c2nc3cccc(Cl)c3c(=O)n2-c2ccccc2)o1
B. CC[C@H](Nc1ncnc(N)c1-c1nc(C)no1)c1nc2cccc(Cl)c2c(=O)n1C1CC1
Input: // select label with min value of measured half-life from [ A , B ] Lab log: write the label of the selected item as the result.
Output: A

----------
# METHOD: Pharmacokinetics after intravenous and oral administration in rats
# Type: in vivo, rat
# CONDITION PARAMETERS: iv dosing, dose 1 mg/kg
METRIC NAME: clearance (CL) (mL/min/kg)

CC[C@H](Nc1ncnc(N)c1-c1nc(C)no1)c1nc2cccc(F)c2c(=O)n1-c1ccccc1 :: 51.8
CC[C@H](Nc1ncnc(N)c1-c1noc(C)n1)c1nc2cccc(Cl)c2c(=O)n1C1CC1 :: 31.8
CC[C@H](Nc1ncnc(N)c1-c1nnc(C)o1)c1nc2cccc(Cl)c2c(=O)n1C1CC1 :: 41.2

a. CC[C@H](Nc1ncnc(N)c1-c1noc(C)n1)c1nc2cccc(F)c2c(=O)n1C1CC1
b. CC[C@H](Nc1ncnc(N)c1-c1nc(C)no1)c1nc2ccccc2c(=O)n1-c1ccccc1F
c. Cc1nnc(-c2c(N)ncnc2N[C@@H](C)c2nc3cccc(Cl)c3c(=O)n2-c2ccccc2)o1
Input: Ascending by clearance (CL), please: list the compounds accordingly. The response must list the labels following the requested ordering.
Output: c, a, b

----------
# TGT: PI3K (p110δ/p85α) (h) (Homo sapiens (Human), UniProt O00329)
# Sequence (O00329 whole entry): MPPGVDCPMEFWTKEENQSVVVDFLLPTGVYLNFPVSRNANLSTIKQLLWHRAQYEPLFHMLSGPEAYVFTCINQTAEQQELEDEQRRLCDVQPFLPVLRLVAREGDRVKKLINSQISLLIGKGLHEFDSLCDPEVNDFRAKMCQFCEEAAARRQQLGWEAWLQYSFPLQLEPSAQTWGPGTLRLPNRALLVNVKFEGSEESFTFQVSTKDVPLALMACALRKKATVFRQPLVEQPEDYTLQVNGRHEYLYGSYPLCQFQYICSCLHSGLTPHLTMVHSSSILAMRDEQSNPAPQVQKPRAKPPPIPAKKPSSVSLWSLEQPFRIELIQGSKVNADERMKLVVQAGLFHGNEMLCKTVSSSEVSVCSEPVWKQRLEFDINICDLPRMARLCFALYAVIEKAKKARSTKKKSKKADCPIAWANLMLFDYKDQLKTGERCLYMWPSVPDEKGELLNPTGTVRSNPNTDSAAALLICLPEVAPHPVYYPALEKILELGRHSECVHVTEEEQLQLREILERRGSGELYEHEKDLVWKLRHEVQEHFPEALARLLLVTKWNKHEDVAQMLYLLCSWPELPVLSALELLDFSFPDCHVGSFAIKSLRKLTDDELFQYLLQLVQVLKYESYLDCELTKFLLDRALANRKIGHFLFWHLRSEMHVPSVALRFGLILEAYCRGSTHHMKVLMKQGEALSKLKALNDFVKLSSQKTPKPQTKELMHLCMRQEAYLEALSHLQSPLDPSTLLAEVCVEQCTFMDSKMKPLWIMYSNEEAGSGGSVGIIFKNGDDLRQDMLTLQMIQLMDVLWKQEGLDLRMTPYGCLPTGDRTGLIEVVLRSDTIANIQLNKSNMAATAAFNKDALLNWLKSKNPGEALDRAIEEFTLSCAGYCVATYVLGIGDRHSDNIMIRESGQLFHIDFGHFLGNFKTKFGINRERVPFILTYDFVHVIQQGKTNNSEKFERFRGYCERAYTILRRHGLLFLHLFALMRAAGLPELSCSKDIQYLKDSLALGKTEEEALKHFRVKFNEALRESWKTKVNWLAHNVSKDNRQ
# Sequence (P27986 whole entry partner): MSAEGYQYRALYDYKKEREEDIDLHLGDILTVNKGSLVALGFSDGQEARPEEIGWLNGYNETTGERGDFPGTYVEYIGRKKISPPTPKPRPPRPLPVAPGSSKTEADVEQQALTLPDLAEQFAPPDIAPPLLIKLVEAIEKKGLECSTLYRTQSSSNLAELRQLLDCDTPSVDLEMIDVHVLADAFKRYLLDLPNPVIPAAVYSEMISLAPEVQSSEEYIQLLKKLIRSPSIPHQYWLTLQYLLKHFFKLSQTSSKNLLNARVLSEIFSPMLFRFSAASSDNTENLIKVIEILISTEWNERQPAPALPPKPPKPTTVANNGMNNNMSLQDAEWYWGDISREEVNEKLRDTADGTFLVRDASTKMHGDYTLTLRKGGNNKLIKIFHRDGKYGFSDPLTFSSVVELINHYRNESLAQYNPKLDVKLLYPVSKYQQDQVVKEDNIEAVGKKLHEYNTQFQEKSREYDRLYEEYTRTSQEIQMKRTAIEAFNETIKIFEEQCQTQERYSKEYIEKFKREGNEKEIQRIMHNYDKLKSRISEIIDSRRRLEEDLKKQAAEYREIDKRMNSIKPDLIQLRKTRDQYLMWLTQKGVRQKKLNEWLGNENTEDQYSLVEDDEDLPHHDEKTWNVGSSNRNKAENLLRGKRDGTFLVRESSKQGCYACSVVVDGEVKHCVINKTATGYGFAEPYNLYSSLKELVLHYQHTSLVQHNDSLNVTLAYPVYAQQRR
# METHOD: PI3K (p110δ/p85α) (h) non-radioactive HTRF kinase assay
# Format: biochemical
pIC50: −log10 of the molar value.
METRIC NAME: pIC50

CC[C@H](Nc1ncnc(N)c1-c1ncc(C)o1)c1nc2cccc(Cl)c2c(=O)n1C1CC1 :: 6.61

1. CC[C@H](Nc1ncnc(N)c1-c1nc(C)no1)c1nc2cccc(Cl)c2c(=O)n1C1CC1
2. CC[C@H](Nc1ncnc(N)c1-c1ccccn1)c1nc2cccc(Cl)c2c(=O)n1C1CC1
3. CC[C@H](Nc1ncnc(N)c1-c1nnc(C)o1)c1nc2cccc(Cl)c2c(=O)n1-c1ccccc1
4. CC[C@H](Nc1ncnc(N)c1-c1nnc(C)o1)c1nc2cccc(F)c2c(=O)n1-c1ccccc1
5. CC[C@H](Nc1ncnc(N)c1-c1nc(C)no1)c1nc2ccccc2c(=O)n1-c1ccccc1F
Input: Ascending by pIC50, please: list the compounds accordingly. The response must list the labels following the requested ordering.
Output: 2, 4, 5, 1, 3

----------
# TGT: PI3K (p110δ/p85α) (h) (Homo sapiens (Human), UniProt O00329)
# METHOD: PI3K (p110δ/p85α) (h) non-radioactive HTRF kinase assay
pIC50: −log10 of the molar value.
METRIC NAME: pIC50

As a guide, the following entries are already answered.
CC[C@H](Nc1ncnc(N)c1-c1noc(C)n1)c1nc2cccc(Cl)c2c(=O)n1C1CC1 [Ex. 12] :: 7.32
CC[C@H](Nc1ncnc(N)c1-c1nc(C)no1)c1nc2cccc(C)c2c(=O)n1-c1ccccc1C [Ex. 27] :: 7.89

a. CC[C@H](Nc1ncnc(N)c1-c1ccon1)c1nc2cccc(Cl)c2c(=O)n1C1CC1 [Ex. 14]
b. CCc1nc(-c2c(N)ncnc2N[C@@H](C)c2nc3cccc(Cl)c3c(=O)n2C2CC2)no1 [Ex. 61]
Input: Param pair: a , b . Output: the one whose pIC50 is numerically greater. Lab log: write the label of the selected item as the result.
Output: a
